- Test target: IRE1α (Homo sapiens)
- Construct: purchased Signal Chem E31-11G
- Sequence (O75460 468-977 limits assumed): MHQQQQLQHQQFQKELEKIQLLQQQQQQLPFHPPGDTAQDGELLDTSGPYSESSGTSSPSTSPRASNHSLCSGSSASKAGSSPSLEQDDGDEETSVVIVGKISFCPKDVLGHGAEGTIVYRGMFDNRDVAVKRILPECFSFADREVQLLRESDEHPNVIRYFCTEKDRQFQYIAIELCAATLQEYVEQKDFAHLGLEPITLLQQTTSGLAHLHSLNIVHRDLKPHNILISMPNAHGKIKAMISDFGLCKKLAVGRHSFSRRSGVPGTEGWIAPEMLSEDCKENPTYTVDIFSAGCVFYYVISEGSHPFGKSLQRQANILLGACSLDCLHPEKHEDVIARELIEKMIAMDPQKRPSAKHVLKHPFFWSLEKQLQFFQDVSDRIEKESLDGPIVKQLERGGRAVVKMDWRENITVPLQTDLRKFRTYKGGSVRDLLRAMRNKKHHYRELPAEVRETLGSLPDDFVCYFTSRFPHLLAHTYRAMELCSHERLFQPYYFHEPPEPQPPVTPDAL
- Protocol: Biochemical assay: inhibition of RNase activity of IRE1α
- Condition info: enzyme 0.325 nM, substrate 100 nM, 20 minutes
Observable: log10(IC50) (log10 of the value in nM)
Scale: log10; quantity: IC50; unit before log: nM

Look over these answered cases.
[[record]]
compound = "Cc1ccc(F)c(S(=O)(=O)Nc2ccc(-c3nn(C(C)C)c4c(C5=CCC(NC6COC6)CC5)cnc(N)c34)cc2F)c1 (single isomer, unassigned) [Compound B17]"
observable = "log10(IC50)"
measured_result = 0.34

[[record]]
compound = "COCC(C)NC1CC=C(c2cnc(N)c3c(-c4ccc(NS(=O)(=O)c5ccccc5Cl)c(F)c4)nn(C(C)C)c23)CC1 (stereo not drawn) [Compound B3]"
observable = "log10(IC50)"
measured_result = 0.85

[[record]]
compound = "COCCNC1CC=C(c2cnc(N)c3c(-c4ccc(NS(=O)(=O)c5ccccc5Cl)c(F)c4)nn(C(C)C)c23)CC1 (single isomer, unassigned) [Compound B52]"
observable = "log10(IC50)"
measured_result = 0.89

[[record]]
compound = "COCCN[C@H]1CC[C@H](c2cnc(N)c3c(-c4cc(F)c(NS(=O)(=O)c5cc(F)ccc5F)cc4F)nn(C(C)C)c32)CC1 [Compound A31]"
observable = "log10(IC50)"
measured_result = 0.93

[[record]]
compound = "COCCNC1CC=C(c2cnc(N)c3c(-c4ccc(NS(=O)(=O)Cc5ccccc5Cl)c(F)c4)nn(C(C)C)c23)CC1 (single isomer, unassigned) [Compound B54]"
observable = "log10(IC50)"
measured_result = 0.30


For each of the items listed, what is its log10(IC50)?
1. CC(F)CNC1CC=C(c2cnc(N)c3c(-c4ccc(NS(=O)(=O)Cc5ccccc5Cl)c(F)c4)nn(C(C)C)c23)CC1 (single isomer, unassigned) [Compound B42]
2. COCCN[C@H]1CC[C@H](c2cnc(N)c3c(-c4cc(F)c(NS(=O)(=O)c5ccccc5OC)cc4F)nn(C(C)C)c32)CC1 [Compound A10]
3. CC(C)n1nc(-c2cc(F)c(NS(=O)(=O)c3ccccc3F)cc2F)c2c(N)ncc([C@H]3CC[C@H](NC4COC4)CC3)c21 [Compound A50]

0.23
2.38
0.84

Can you give me log10(IC50) for all of these, one by one?
1. CC(C)n1nc(-c2cc(F)c(NS(=O)(=O)c3ccccc3F)cc2F)c2c(N)ncc([C@H]3CC[C@H](N4CCOCC4)CC3)c21 [Compound A3]
2. CC(C)n1nc(-c2ccc(NS(=O)(=O)c3ccccc3F)c(F)c2)c2c(N)ncc([C@H]3CC[C@H](NC4COC4)CC3)c21 [Compound A1]
3. CC(F)CNC1CC=C(c2cnc(N)c3c(-c4ccc(NS(=O)(=O)Cc5ccccc5Cl)c(F)c4)nn(C(C)C)c23)CC1 (single isomer, unassigned) [Compound B43]
4. CC(C)n1nc(-c2ccc(NS(=O)(=O)c3ccccc3F)c(F)c2)c2c(N)ncc([C@H]3CC[C@@H](NC4COC4)CC3)c21 [Compound A12]

1.20
0.76
-0.30
2.64
